Examples of compounds with documented pIC50 follow.
assay details: Inhibition of [3H]citalopram Binding to the Serotonin Transporter in Rhesus (Macaca mulatta) or Cynomolgus Monkey (Macaca fascicularis) Caudate-Putamen
pIC50: −log10 of the molar value.
measured endpoint: pIC50

1. COC(=O)[C@@H](c1ccc2ccccc2c1)[C@@H]1CCCCO1 :: 6.00
2. N#CC(c1ccc(Cl)c(Cl)c1)C1CCCCC1 (stereo not given) :: 5.10
3. COC(=O)[C@H](c1ccc(Cl)c(Cl)c1)[C@@H]1CCCCO1 (single isomer, unassigned; 5c) :: 5.11
4. COC(=O)[C@H](c1ccc2ccccc2c1)[C@@H]1CCCCO1 (single isomer, unassigned) :: 5.00
5. COC(=O)[C@@H](c1ccc(Cl)c(Cl)c1)[C@@H]1CCCCO1 (stereo in doubt; 12) :: 5.78
6. COC(=O)C(c1ccc(Cl)c(Cl)c1)C1CCCCC1 (stereo not given) :: 4.92
7. COC(=O)[C@@H](c1ccc(Cl)c(Cl)c1)[C@H]1CCCCO1 (single isomer, unassigned) :: 5.11
8. COC(=O)[C@@H](c1ccc(Cl)c(Cl)c1)[C@@H]1CCCCO1 (stereo in doubt; 4c) :: 5.66
9. COC(=O)C(c1ccc(Cl)c(Cl)c1)C1CCCC1 (stereo not given) :: 5.15
10. N#CC(c1ccc(Cl)c(Cl)c1)C1CCCC1 (stereo not given) :: 5.00
